assay: qHTS Assay for Identification of Small Molecule Agonists for Hypoxia Response Element Signaling Pathway (AID 914); settings: ME-180 (cervical carcinoma) HRE-bla reporter, beta-lactamase ratio, CoCl2, 17 h; stronger effect = higher value; also: % of control where 0% means no effect
Records with an inconclusive call do not appear. Activity calls are given as the source filed them. Calls follow the shape of the dose curve; as a rule, active = well fitted activation curve with a large enough effect in the signal ratio, with a control signal flat (not every such curve was filed as active); inconclusive = small, poorly fitted or top-dose-only effect, or effect the other way, or a change in a side signal; inactive = flat fitted curve, though single readings scatter; the % refers to the signal ratio.
PARAMETER: activation

GET /values?readout=activation&item= `C#CCCCO/N=C1/C[C@@H](O)[C@@H](O)[C@@H]2[C@@H]3C(=O)N(C4CCCCC4)C(=O)[C@H]3CC[C@@H]12`
-13.1% (inactive)

Form field: reported activation of `COc1ccc(COC(=O)N/N=C2/C[C@@H](O)[C@@H](O)[C@@H]3[C@@H]4C(=O)N(c5cccc(Oc6ccccc6)c5)C(=O)[C@H]4CC[C@H]23)cc1`
-10.1% (inactive)

So what does the record say about activation for `O=C1C=C[C@@H](O)[C@H]2[C@@H]3C(=O)N(C[C@@H]4CCCO4)C(=O)[C@@H]3CC[C@H]12` ?
-2.79% (inactive)

Any idea what its activation is? The molecule is `C#CCCCO/N=C1/C[C@@H](O)[C@@H](O)[C@@H]2[C@@H]3C(=O)N(c4cccc(Oc5ccccc5)c4)C(=O)[C@H]3CC[C@@H]12`
-6.82% (inactive)

Tell me the measured activation of `C#CCCCO/N=C1/C[C@@H](O)[C@@H](O)[C@@H]2[C@@H]3C(=O)N(C4CCCCC4)C(=O)[C@H]3CC[C@H]12` , please.
7.1% (inactive)

What does the data say about its activation? Entry: `C/C(CCN1CCCCc2nc(C)c(C)cc21)=N\OC[C@@H](C)[C@H](OCc1ccccc1)C(C)C`
5.09% (inactive)

Could you share which activation value was measured for `O=C(N/N=C1/C[C@@H](O)[C@@H](O)[C@@H]2[C@@H]3C(=O)N(c4cccc(Oc5ccccc5)c4)C(=O)[C@H]3CC[C@@H]12)OCc1ccccc1` ?
-0.0366% (inactive)

Requested read-out: activation. Entry: `CO[C@H]1COC(=O)[C@H](C)COC(=O)[C@H](C)NC(=O)C/C=C\[C@H]1C`
5.98% (inactive)

What value of measured activation is listed for `CO[C@H]1COC(=O)C/C=C\[C@@H](C)COC(=O)[C@H]2CCCN2C(=O)C/C=C\[C@H]1C` ?
11.3% (inactive)

# input molecule: `CO[C@H]1COC(=O)C/C=C\[C@H](C)COC(=O)[C@@H](OCc2ccccc2)/C=C\[C@@H]1C` ; wanted: its activation
-11.2% (inactive)

Need activation of `Cc1ccc(S(=O)(=O)N[C@H]2COC(=O)C/C=C\[C@@H](C)[C@H](NS(=O)(=O)c3ccc(C)cc3)COC(=O)[C@H](C)NC(=O)C/C=C\[C@H]2C)cc1` , thanks.
3.42% (inactive)

Consider the molecule shown here: `CC(C)C(=O)N[C@@H]1CCCN1C(=O)/C=C\c1ccccc1` What is its recorded activation?
12.7% (inactive)

State the recorded activation for this entry: `COC(=O)C/C=C\[C@@H](C)[C@H]1C=C[C@H](O)[C@@H](CO)O1`
10.7% (inactive)

Using the record for `CCN1C(=O)[C@H]2[C@H]3[C@H](O)[C@H](O)C/C(=N/OCc4ccccc4)[C@@H]3CC[C@@H]2C1=O` , report its activation.
-12.3% (inactive)

Query (molecule): `CC(C)=CCC/C(C)=C/CO/N=C1/[C@H]2O[C@@H]2[C@@H](O)[C@H]2[C@H]1CCn1c(=O)n(Cc3cc4c(cc3Cl)OCO4)c(=O)n12` ; field requested: activation
3.23% (inactive)

Given the molecule `COC(=O)C/C=C\[C@@H](C)[C@@H]1C=C[C@H](OC(C)=O)[C@H](COC(C)=O)O1` , what is its reported activation?
1.52% (inactive)

Which activation reading was recorded for the molecule `C/C(CCC(=O)OC[C@@H]1O[C@H](C#Cc2ccccc2)C=C[C@@H]1Oc1ccc(C)cc1)=N/OC[C@@H](C)[C@H](OCc1ccccc1)C(C)C` ?
14.9% (inactive)

Returns the measured activation for the input molecule. Input: `CO[C@H]1COC(=O)C/C=C\[C@@H](C)COC(=O)[C@@H](OCc2ccccc2)/C=C\[C@@H]1C`
-3.25% (inactive)

Using the record for `CCCNC(=O)OC[C@@H]1O[C@H](CCON=C(C)C)C=C[C@@H]1Oc1ccc(OC)cc1` , report its activation.
-3.17% (inactive)

activation for `CCOC(=O)CCN1C(=O)[C@H]2[C@@H]3[C@H](O)[C@H](O)CC(=O)[C@H]3CC[C@H]2C1=O` ?
2.87% (inactive)

Report activation for `CSCC[C@@H]1NC(=O)C/C=C\[C@@H](C)COC(=O)[C@H](C)COC1=O` please.
5.76% (inactive)

For `CC(C)C(=O)N[C@H]1CCCN1C(=O)/C=C\c1ccccc1` , what is its reported activation?
4.87% (inactive)

Entry `CCc1cc2c(nc1CC)CCN(CC/C(C)=N/O[C@@H](C)c1cn([C@H](CO)Cc3ccccc3)nn1)C2` : reported activation = ?
-4.74% (inactive)

Name the recorded activation for `COC(=O)C/C=C\[C@@H](C)[C@@H](/C=N\O[C@@H](C)CN1CCCc2nc(C)c(C)cc21)NS(=O)(=O)c1ccc(C)cc1` .
4.52% (inactive)
